Species: Homo sapiens
test-summary: Selectivity index, ratio of IC50 for inhibition of FLT3 ITD mutant in human MOLM13 cells to IC50 for inhibition of JAK2 V617F mutant in human SET-2 cells
Type: cell-based
Assign labels as follows, please: TRUE for Ratio IC50 below 1; FALSE for Ratio IC50 equal to or exceeding 1.

Example results:
{"columns": ["chemical-smiles", "classification"],
 "data": [
  ["Cc1cnc(Nc2ccc3c(c2)CCN(C/C=C/C(=O)NCCN2CCCCC2)C3)nc1-c1cnn(C(C)C)c1", "FALSE"],
  ["CC(C)n1cc(-c2nc(Nc3ccc4c(c3)CCN(CCO)C4)ncc2F)cn1", "TRUE"],
  ["Cc1cnc(Nc2ccc3c(c2)CCN3CCO)nc1-c1cnn(C(C)C)c1", "TRUE"],
  ["Cc1cnc(Nc2ccc3c(n2)CCN(CCCO)C3)nc1-c1cnn(C(C)C)c1", "FALSE"],
  ["COC(=O)CCCN1CCc2cc(Nc3ncc(C)c(-c4cnn(C(C)C)c4)n3)ccc2C1", "FALSE"],
  ["Cc1cnc(Nc2cc3c(cc2F)CN(CCO)CC3)nc1-c1cnn(C(C)C)c1", "FALSE"],
  ["Cc1cnc(Nc2ccc3c(c2)CCN(CCC#N)C3)nc1-c1cnn(C(C)C)c1", "FALSE"],
  ["Cc1cnc(Nc2ccc3c(c2)CCN(CCO)C3)nc1-c1cnn(C(C)C)c1", "FALSE"],
  ["CC(C)n1cc(-c2nc(Nc3ccc4c(c3)CCN(C(=O)CO)C4)ncc2F)cn1", "TRUE"]
]}

Consider now this further molecule.
QUERY: Consider the molecule "CCCCN1CCc2cc(Nc3ncc(C)c(-c4cnn(C(C)C)c4)n3)ccc2C1" . Is its Ratio IC50 strictly less than 1?
RESULT: FALSE
